The following compounds are shown together with reported pIC50 values.
system: Trypanosoma cruzi; assay: Antitrypanosomal activity against Trypanosoma cruzi Colombiana Tc1 epimastigotes measured after 72 hrs; type: functional, organism-based; details: Trypanosoma cruzi, Colombiana, 72 h
API: returns pIC50 as number; meaning -log10 of concentration in mol/L.

[
  {
    "Compound": "O=C(N/N=C/c1ccc([N+](=O)[O-])o1)C1CCCC1",
    "pIC50": 5.01
  }
]

INPUT: What value of pIC50 has been recorded for this entry: Cc1ccc(C(=O)N/N=C/c2ccc([N+](=O)[O-])o2)cc1
OUTPUT: 4.92

INPUT: Repeat for the following compound: O=C(N/N=C/c1ccc([N+](=O)[O-])o1)c1ccccc1
OUTPUT: 4.95

INPUT: Request: O=C(N/N=C/c1ccc([N+](=O)[O-])o1)c1ccco1
OUTPUT: 4.88

###

test system: Trypanosoma cruzi; assay: Antitrypanosomal activity against Trypanosoma cruzi Colombiana Tc1 epimastigotes measured after 72 hrs; type: functional, organism-based; conditions: Trypanosoma cruzi, Colombiana, 72 h
Parameter Measured: pIC50
To interpret pIC50, take it as minus log10 of a concentration measured in moles per litre.

# count of solved cases: 5
[
  {
    "Compound": "O=C(Cc1ccccc1)N/N=C/c1ccc([N+](=O)[O-])o1",
    "pIC50": 5.00
  },
  {
    "Compound": "CC(=O)N/N=C/c1ccc([N+](=O)[O-])o1 [NIHYDRAZONE]",
    "pIC50": 5.02
  },
  {
    "Compound": "CCCCCC(=O)N/N=C/c1ccc([N+](=O)[O-])o1",
    "pIC50": 5.12
  },
  {
    "Compound": "CC(C)(C)OC(=O)N/N=C/c1ccc([N+](=O)[O-])o1",
    "pIC50": 5.13
  },
  {
    "Compound": "CCCc1ccc(C(=O)N/N=C/c2ccc([N+](=O)[O-])o2)cc1",
    "pIC50": 5.14
  }
]

Here's the next entry for you.
INPUT: Return reported pIC50; argument: CCOc1ccc(C(=O)N/N=C/c2ccc([N+](=O)[O-])o2)cc1
OUTPUT: 4.94

Source: ChEMBL document CHEMBL4145444
